Ref: PubChem BioAssay

- System: Plasmodium falciparum Sir2 (PF13_0152, Sir2A)
- assay.remarks: pfSir2 binders on small-molecule microarrays, primary screen, biochemical, small-molecule microarray, 635 nm fluorescence (AID 1098);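 further: score merges spot fluorescence intensity with its signal-to-noise ratio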
- test.context: small-molecule microarray binding, fluorescence 635 nm; higher = more signal
Each item that follows carries a reported composite z-score.
Form: value (number only, do not type unit).

Take a look at these entries with their results.
molecule	composite z-score
CCCC=C(CCC)[C@@H](NC(=O)c1ccc(-c2ccccc2)cc1)c1ccc(C(=O)OC)cc1	0.407
COc1ccc(O[C@H]2C=C[C@@H](c3ccccc3)O[C@@H]2COC(=O)CCC(C)=NO[C@H](C)c2cn([C@@H]3COC[C@H]3O)nn2)cc1	0.716
COC(=O)[C@H](C)NC(=O)CCC1CC(OC(=O)NCCc2ccc(F)cc2)CC2(CCCC(COC(=O)NCC(c3ccccc3)c3ccccc3)O2)O1 (some centres undefined)	0.713

Alright, here's another molecule for you.
[ask] Can you share its composite z-score? I mean this molecule: CCOC(=O)[C@H](Cc1ccccc1)NC(=O)CCC1CC(OC(=O)NCc2ccc3c(c2)OCO3)CC2(CCCC(COC(=O)NCc3ccccc3)O2)O1 (some centres undefined)
[reply] 0.403
